protocolNotes: Solubility of compound
Assay type: physicochemical
readoutLabel: solubility

Query: Recorded solubility for CC(C)c1nn(C)cc1-c1nc2cc(Br)cnc2[nH]1 , please?
Result: < 100 µM
